Reference source: paper PMC7946963

Target: T1, FIP200 Claw R1573E (human)
T1 chain: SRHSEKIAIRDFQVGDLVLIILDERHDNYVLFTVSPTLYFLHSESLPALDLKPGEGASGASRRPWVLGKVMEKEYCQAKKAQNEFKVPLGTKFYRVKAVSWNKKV
Test: FP
MEASURED_ATTRIBUTE: Kd (µM)
Give bare numbers, in µM.

Ask: I'd like to know its Kd. The binder in question is TASDDSDIVTLEPPK (domain or fragment) [CCPG1 FIR2 (residues 99–113), recombinant]
Reply: 138
